# Target System: mutant AR (expressed in LNCaP) (Homo sapiens, UniProt P10275, T878A)
# Sequence (P10275 whole entry T878A): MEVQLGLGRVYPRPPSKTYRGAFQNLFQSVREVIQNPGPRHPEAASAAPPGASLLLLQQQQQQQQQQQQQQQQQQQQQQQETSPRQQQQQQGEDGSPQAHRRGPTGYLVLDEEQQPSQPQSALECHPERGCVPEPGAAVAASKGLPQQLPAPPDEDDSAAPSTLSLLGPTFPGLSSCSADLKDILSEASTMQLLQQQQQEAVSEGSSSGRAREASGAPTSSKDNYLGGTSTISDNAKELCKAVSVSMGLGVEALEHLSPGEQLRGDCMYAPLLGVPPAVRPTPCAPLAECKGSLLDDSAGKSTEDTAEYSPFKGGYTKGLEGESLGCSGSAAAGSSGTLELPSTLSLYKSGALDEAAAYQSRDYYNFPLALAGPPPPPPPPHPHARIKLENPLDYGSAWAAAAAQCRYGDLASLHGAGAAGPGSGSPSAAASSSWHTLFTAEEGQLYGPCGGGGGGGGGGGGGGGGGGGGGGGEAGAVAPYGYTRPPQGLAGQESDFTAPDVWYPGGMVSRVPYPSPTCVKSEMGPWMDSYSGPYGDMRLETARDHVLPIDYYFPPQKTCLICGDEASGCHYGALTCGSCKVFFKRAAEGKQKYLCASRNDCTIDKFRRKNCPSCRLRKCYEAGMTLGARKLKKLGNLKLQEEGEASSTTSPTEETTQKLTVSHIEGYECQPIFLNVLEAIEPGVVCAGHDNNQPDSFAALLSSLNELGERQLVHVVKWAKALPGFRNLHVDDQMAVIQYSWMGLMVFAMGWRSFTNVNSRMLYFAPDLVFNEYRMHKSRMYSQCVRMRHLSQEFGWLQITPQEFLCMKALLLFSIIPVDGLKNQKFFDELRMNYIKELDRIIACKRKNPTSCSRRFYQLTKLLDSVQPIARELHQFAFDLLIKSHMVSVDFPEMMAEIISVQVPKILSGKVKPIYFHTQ
# Assay Method Text: cell-based
Readout Kind: pIC50
Numbers only, as −log10 of the molar value.

Data request: Item: C[C@]12CC[C@H](O)CC1=CC[C@@H]1[C@@H]2CC[C@]2(C)C(c3cccnc3)=CC[C@@H]12 [Abi, abiraterone] Test system: mutant AR (expressed in LNCaP) (Homo sapiens, UniProt P10275, T878A) Read-out: pIC50 Value: ?
Data returned: 6.38
